Target: DR7 (DRB1*0701) (Homo sapiens, UniProt P01903+P01911, A100R/A102G/A103Q/D57E/D86V/E43K/F76Y/K127E/L162R/M171V/P40G/Q125H/Q99D/R33Q/R42Y/R54Q/S133A/S66F/T210M/V115G/Y107V/Y59L/Y89S)
Assay comment: biochemical
Type: binding
No end group written: not given here.
Categorized via IC50: low bracket = under 0.8 µM, middle bracket = from 0.8 µM up to 7 µM, high bracket = 7 µM and over

Query: Input LKRFLQGIPKKNCIL [Peptide 89.0016] ; output its category
Reply: high bracket

Query: Tag the class for PPLLITTNINPMLDA [Peptide 89.0139]
Reply: high bracket

Query: Category of RNTFLDVVTIPNSVQ [Peptide 1601.39] , please.
Reply: low bracket

Query: Using the reported IC50, which band applies to PDGQAEQATSNYYIV [Peptide 1543.43] ?
Reply: low bracket

Query: Which category fits this record: NKALQAIELQLTLET [Peptide 89.0151]
Reply: middle bracket

Query: Into which category would you place ISEVMGDTPEWIQRL [Peptide 90.0052] ?
Reply: middle bracket

Query: Into which category would you place WKLIRMECAIMYTAR [Peptide 90.0245] ?
Reply: middle bracket

Query: Class label required: AQEVHNDAQVLHVLK [Peptide 90.0047]
Reply: high bracket

Query: Using the reported IC50, which band applies to DSQIAFQYAQLADVD [Peptide 89.0130] ?
Reply: high bracket

Query: Where would TELNTSLQDIEITCV [Peptide 1543.34] land among the classes by reported IC50?
Reply: high bracket

Query: Dear colleague, I would appreciate it if you could identify the bin for IIHLKGDKNSLKCLR [90,0218] and reply at your convenience.
Reply: high bracket

###

Target: HLA-A3.2 (A*0301) (Homo sapiens)
Assay comment: biochemical
Assay type: binding
pIC50: −log10 of the molar value. No end group written: not given here.
Values of pIC50 greater than or equal to 6 map to 1; values below map to 0.

Query: Confirm if pIC50 reported for the sequence LLYGAANTGK [Peptide 1587.12] is 6 or above.
Reply: 1

Query: Entry VSIEWRLRR [Peptide 9017.0088] : is its pIC50 no less than 6?
Reply: 1

Query: Check the entry VVFGILIKRK [Peptide 9012.0246] : does pIC50 equal or exceed 6?
Reply: 1

Query: Assess whether reported pIC50 for VTVYDGVPVWR [Peptide 1525.08] sits at 6 or higher.
Reply: 0

Query: Form field: pIC50 at least 6? Entry: FLGALKSFLK [Peptide 88.0148]
Reply: 1

Query: Reported pIC50 reaches at least 6 for WTIAYIEYRK [Peptide 9017.0244] ?
Reply: 0

Query: Evaluate SLARRHIAR [Peptide 9017.0067] : pIC50 at minimum 6?
Reply: 1

Query: # bool: pIC50 of GVSIEWRLRR [Peptide 9017.0220] >= 6
Reply: 0

Query: For this sequence, is measured pIC50 6 or higher? AQVLHLLKRK [Peptide 1587.52]
Reply: 1

Query: Identify whether the reported pIC50 of the following sequence is 6 or greater: DLPSQIEHWK [Peptide 88.0212]
Reply: 0

Query: Would you say LTALIKPKKR [Peptide 9017.0231] shows pIC50 at minimum 6?
Reply: 0

Query: // inclusive: pIC50 at least 6? input: AFNSSHKGR [Peptide 88.0394]
Reply: 0

Query: Reported pIC50 reaches at least 6 for VTVQYDNDKK [Peptide 88.0216] ?
Reply: 0

Query: API: above_or_equal(metric=pIC50, cutoff=6) for item TVNEYNTHK [Peptide 1589.36]
Reply: 1

Query: Entry ATNCTNKQR [Peptide 1589.20] : is its pIC50 no less than 6?
Reply: 0

Query: Please tell me: is the sequence NSNAAAFLR [Peptide 88.0387] at or over 6 in terms of pIC50?
Reply: 0

Query: Form field: pIC50 at least 6? Entry: SVRKLTEDR [Peptide 9017.0106]
Reply: 0

Query: Reported pIC50 at or above 6? RFLSKISEYR [Peptide 1571.13]
Reply: 0

Query: For this sequence, is measured pIC50 6 or higher? VFCGPANTGK [Peptide 88.0150]
Reply: 0

Query: Test whether the sequence TTSAELPK [Peptide 1556.23] records pIC50 of 6 or higher.
Reply: 0

Query: API: above_or_equal(metric=pIC50, cutoff=6) for item SQRLNACQNK [Peptide 1589.34]
Reply: 0

Query: Identify whether the reported pIC50 of the following sequence is 6 or greater: VTYHSETQR [Peptide 1589.10]
Reply: 1

Query: Test whether the sequence SFSELVRPFK [Peptide 1587.03] records pIC50 of 6 or higher.
Reply: 0

Query: Confirm if pIC50 reported for the sequence TILWKDIFHR [Peptide 9012.0223] is 6 or above.
Reply: 0

Query: Hello, I need to know if GTFKCSAGK [Peptide 88.0373] has measured pIC50 not below 6. Thanks!
Reply: 1

Query: I'd appreciate it if you could say whether YQNFQNADK [Peptide 99.0371] has pIC50 at least equal to 6.
Reply: 0

Query: Does YGFRLGFLK [Peptide 1556.27] have a reported pIC50 of at least 6?
Reply: 1

Query: Kindly determine if pIC50 recorded for LTNILNVLK [Peptide 1587.02] is above or exactly 6.
Reply: 1

###

Target: HLA-A11 (A*1101) (Homo sapiens, UniProt P04439, A114D/D185E/E176A/F33Y/L180Q/S129P/T187R)
Assay comment: biochemical
Format: binding
No end group written: not given here.
Readout: IC50 (µM)
Write down the numeric answer in µM and omit the unit.

Query: Give IC50 for the following sequence: ITIEKLLEK [Peptide 1587.31]
Reply: 0.014

Query: Report IC50, nothing else, for this sequence: WTIAYIEYR [Peptide 9017.0116]
Reply: 0.031

Query: Output IC50 of SFFSRTWSR [Peptide 1587.16]
Reply: 0.026

Query: Consider the sequence TTSAELPK [Peptide 1556.23] . State its measured IC50.
Reply: 0.221

Query: Give the value of IC50 reported for the following: LTALIKPKK [Peptide 9017.0100]
Reply: 0.071

Query: Read off the recorded IC50 for TLYAEPPK [Peptide 1556.12]
Reply: 0.269

Query: For the sequence TVNEYNTHK [Peptide 1589.36] , give its reported IC50.
Reply: 0.02

Query: Look up and state reported IC50 for VVYRDSIPH [Peptide 78.0275]
Reply: 0.178

Query: Please list IC50 recorded for the sequence FIHFRIGCR [Peptide 9017.0112]
Reply: 7.12

Query: Return value of IC50 for input LVKMFCQLAK [Peptide 1556.50] , no commentary.
Reply: 0.189

Query: Please look at this sequence and report its IC50: MTYVAWDSVY [Peptide 1589.07]
Reply: 0.892

Query: Identify IC50 associated with the sequence VLCGPPNTGK [Peptide 88.0189]
Reply: 0.22

Query: Return the recorded IC50 value; entry: VFADLRIVYR [Peptide 78.0073]
Reply: 2.09

Query: Hello, please tell me recorded IC50 for this one: IQIKRRQQK [Peptide 9012.0207]
Reply: 0.02

###

Target: DRB5*0101 (Homo sapiens, UniProt P01903+Q30154)
Assay comment: biochemical
Measurement context: Binding affinity DRB5 *0101
No end group written: not given here.
Readout: IC50

Query: State its IC50: PMAVSKAKACQAIEL [Peptide 90.0013]
Reply: 12.8 µM

Query: Determine from records and report IC50 for NKALQAIELQLTLET [Peptide 89.0151]
Reply: 0.462 µM

Query: Provide one value: measured IC50 of AKALQAIELQMMLET [Peptide 89.0171]
Reply: 0.284 µM

Query: In one line, give reported IC50 of the entry ELQMALETLSKSQYS [Peptide 89.0183] .
Reply: 10.6 µM

Query: Please give measured IC50 of the following entry: NGWFYVEAVIDRQTG [Peptide 90.0062]
Reply: 0.558 µM

Query: Using known records, supply IC50 for QERPRKLPQLCTELQ [Peptide 1543.22]
Reply: > 20 µM

Query: Determine its reported IC50: NTEVETQQMVQVEEQ [Peptide 89.0039]
Reply: > 20 µM

Query: In one line, give reported IC50 of the entry PRSLQCVSLHLLSND [Peptide 68.0016] .
Reply: > 20 µM

Query: State, in one line, measured IC50 of GRVNTHVHNPLLCSS [Peptide 1601.34]
Reply: > 20 µM

Query: Complete the entry with IC50 for CSAIEVQIALESLST [Peptide 90.0018]
Reply: > 20 µM

Query: State its IC50 for this sequence: EVHVGGQVIVCPASV [Peptide 90.0015]
Reply: > 20 µM

Query: Please report the measured IC50 for ADKIYSISMKHPQEM [Peptide 68.0125]
Reply: > 20 µM

Query: Identify measured IC50 associated with ITFLGALKSFLKGTP [Peptide 89.0034]
Reply: 0.019 µM

Query: Consider the sequence EVHMENESIYCPDSV [Peptide 90.0238] and give its recorded IC50.
Reply: > 20 µM

Query: Write down IC50 measured for item ETCMVIEPPKLRSQT [Peptide 90.0083]
Reply: 0.124 µM

Query: Find the measured IC50 of STWHWTGCNKNTGIL [Peptide 1601.38] and report it.
Reply: 16.5 µM

Query: Return IC50 for the following sequence: GEIYIIEEDTCTMVT [Peptide 90.0202]
Reply: > 20 µM

Query: Give me measured IC50, please, for this sequence: ESDMAFQYAQLADCN [Peptide 89.0085]
Reply: 7.69 µM

Query: Return value of IC50 for input VTVFTFPHAFPFDKN [Peptide 89.0092] , no commentary.
Reply: 0.226 µM

Query: Answer with the recorded IC50 for the sequence listed here: TPEWIERQTVLQHSF [Peptide 89.0048]
Reply: > 20 µM

Query: Respond only with IC50 recorded for DCKWGVLILALLRYK [Peptide 89.0026]
Reply: 1.12 µM

Query: Please supply the value of reported IC50 for the item LKVLIKQHSIYTHLQ [Peptide 89.0142]
Reply: > 20 µM

Query: Look up and state reported IC50 for ENSIQADTEAARALF [Peptide 90.0078]
Reply: > 20 µM

Query: Using known records, supply IC50 for LSHVKIPVVYRLVWD [Peptide 90.0020]
Reply: 1.34 µM

Query: Name the recorded IC50 of the item TYISTSQRDDFLNTV [Peptide 1601.27] in your answer.
Reply: > 20 µM

Query: Please report the measured IC50 for LYGVSFMELIRPFQS [Peptide 89.0041]
Reply: 6.04 µM

Query: Give IC50 for the following sequence: VMFLRYQGVEFMSFL [Peptide 89.0014]
Reply: 0.701 µM

Query: Hello, please tell me recorded IC50 for this one: DWCVAAFGVTGTVAE [Peptide 89.0042]
Reply: 8.65 µM

Query: Please indicate IC50 recorded for KIGMLDDATVPCWNY [Peptide 90.0040]
Reply: > 20 µM

Query: Input FLSYFKLFLQGTPKH [Peptide 89.0132] , output reported IC50.
Reply: > 20 µM

Query: Fill in reported IC50 for this entry: LCVNSTASDLRTIQQ [Peptide 1543.15]
Reply: > 20 µM

Query: Output measured IC50 for this item: GKSLFGMSLMKFLQG [Peptide 89.0019]
Reply: 0.513 µM

Query: Please give the documented IC50 of IHFLKGCIISYVNSK [Peptide 89.0147]
Reply: > 20 µM

Query: Given the sequence FKKFLKGIPKKSCML [Peptide 89.0073] , write its reported IC50.
Reply: 0.066 µM

Query: Supply measured IC50 of AKLMSNLLSIPETCM [Peptide 89.0066] in your reply.
Reply: > 20 µM

Query: Kindly indicate its recorded IC50. Item: KTLIKPATLYAHIQC [Peptide 89.0083]
Reply: 5.23 µM

Query: Please list IC50 recorded for the sequence PRWLCAGALVLAGGF [Peptide 68.0083]
Reply: > 20 µM

Query: Report IC50 for LIQLKCPPILLTTNI [Peptide 89.0038]
Reply: > 20 µM

Query: Hello, please tell me recorded IC50 for this one: YENDSTDLRDHIDYW [Peptide 1601.01]
Reply: > 20 µM

Query: // Input: STSDDTVSATQIVRQ [Peptide 1601.31] . Output its IC50 only.
Reply: > 20 µM

Query: Please report IC50 for the following sequence: AQEVHNDAQVLHVLK [Peptide 90.0047]
Reply: > 20 µM

Query: State, in one line, measured IC50 of TLAVSKNKALQAIEL [Peptide 89.0150]
Reply: > 20 µM

Query: Input HWKLIRMECAIMYTA [Peptide 90.0021] , output reported IC50.
Reply: 3.07 µM

Query: Specify reported IC50 for the sequence shown: IWEVHMENESIYCPD [Peptide 90.0237]
Reply: > 20 µM

Query: Find the measured IC50 of IYIIEEDTCTMVTGK [Peptide 90.0204] and report it.
Reply: > 20 µM

Query: Give the reported value of IC50 for this record: RQHLANHPAATHTKA [Peptide 89.0155]
Reply: > 20 µM

Query: Kindly indicate its recorded IC50. Item: IAYYYAQLADSNSNA [Peptide 89.0072]
Reply: > 20 µM

Query: Give me measured IC50, please, for this sequence: WCIIGMGVTPSVAEG [Peptide 89.0097]
Reply: > 20 µM

Query: For the sequence ACSWGMVVLLLVRYK [Peptide 89.0004] , report IC50.
Reply: > 20 µM

Query: Answer with the recorded IC50 of EYVLDLYPEPTDLYC [Peptide 1543.12] only.
Reply: > 20 µM

Query: // fetch IC50 given entry GQVIVFPESVFSSDE [Peptide 89.0173]
Reply: > 20 µM

Query: Give the reported IC50 for this sequence. TVTFVTEQQQQMFLG [Peptide 90.0210]
Reply: > 20 µM
